assay_comment: Phase 1 study, multiple oral dose (twice a day for 10 days) pharmacokinetics in healthy subjects
Type: in vivo, human
experimental_context: human, plasma, po, 100 mg, 100 mg BID oral, fasted state, Day 1, geometric mean; unreliable due to short sampling duration 0-12 hours, exploratory
value_kind: half-life (h)
// return numeric value only (unit: h, not printed)

(Q) half-life for OC[C@H]1O[C@H](Sc2cncc(Br)c2)[C@H](O)[C@@H](n2cc(-c3cc(F)c(F)c(F)c3)nn2)[C@H]1O ?
(A) 7.04
